study_target: E1E2 of HCV isolate AMS.2b.20876551.kloon21 (genotype 2b) (Hepatitis C virus genotype 2b)
protocol_details: cell-based or functional assay
Catalogue of IC90, HCVpp neutralization values
Report only the number, with the unit µg/mL understood.

[
  {
    "binder": "AT12-007 (antibody, V domains shown) VH: QVQLEQSGAEVKKPGASVKVSCKVSGYTLTELSMHWVRQAPGKGLEWMGSFDPADGERLYAQKFQGRVIMSEDTSTDTAYMELSSLRSEDAAVYYCATAPRMTMFGVIMALDSWGQGTLVTVSS VL: DIQMTQSPSTLSASLGDRVTITCRASQNINKYLAWYQQKPGKAPKLLIYKASNLQSGVPSRFSGSGSGTDFILTISSLQPDDFATYYCQQYTTYSAWTFGQGTNVDIKR",
    "measured_metric": "IC90, HCVpp neutralization",
    "display_unit": "µg/mL",
    "value_reported": 9.41
  },
  {
    "binder": "AT13-021 (antibody, V domains shown) VH: QVQLVQSGAEVKKPGSSVKVSCKASGGTFNTHAFSWVRQAPGEGLEWMGGISPMSGTPNYAQKFQGRLTITADESTSTGYMELRSLTSEDTAVYYCARELIGYCTGGNCYSFGDFWGQGTLITVSS VL: EIVMTQSPATLSVSPGERATLSCRASQSVSSHLAWYQHKPGQAPRLLISGASTRAVGVPARFSGSGSGTEFTLTISSLQSEDFAVYYCHQYNTWPRGFGQGTKVDFKR",
    "measured_metric": "IC90, HCVpp neutralization",
    "display_unit": "µg/mL",
    "value_reported": 8.84
  }
]

Next, consider the following binder.
Item AT12-010 (antibody, V domains shown) VH: QLQLVQSGAEVKKPGSSVKVSCKASGGTFTSYAINWVRQVPGQGLEWMGEISPVFGTTHYAQKFQGRLKITADESADTAYMELSSLRSDDTAVYYCGRDRAPRLCSGGRCHSPPDHWGQGTLVTVSS VL: DIQMTQSPSSVSASVGDRVTITCRASQGFGNWLAWYQQKPGRAPKLLIFGASTLQNGVPSRFSGSASGTDFTLTITSLQPEDFATYYCLQTNTFPYTFGQGTKVEIKR has what recorded IC90, HCVpp neutralization?
20.4
